For each of the compounds below, state its viability at 96 h, 5 µM.
# Protocol summary: Viability of FS non malignant fibroblastic cells, XTT test
# Assay type: cell-based
# Condition context: FS cells (non-malignant fibroblastic cell line), Control DMSO = 100%, second FS column, read-out: percentage of viable cells, FS
# Experimental: The effect of the compounds Z522-XXX on the growth profile of cancer cells which express Fer was tested. The cells that were tested were: the colon cancer cell lines HT29 and HCT 116, RKO. […] Generally, cells were seeded in 96 wells microplates and were left to grow untreated overnight. […] The percentage of viable cells in each well was determined 96 hours after compounds addition, using the XTT test (Berridge, M. V. et al, 2005).
Give bare numbers, in %.

1) O=C(C1CCN(c2nn3cc(-c4ccc(Cl)cc4)nc3s2)CC1)N1CCCCC1CN1CCOCC1 (centres unmarked) :: 98
2) Cc1c(-c2ccc(N3CCSCC3)cc2)nc2sc(N3CCC(C(=O)N4CCN(C)CC4)CC3)nn12 :: 86
3) CC(C)c1ccc(-c2cn3nc(N4CCC(C(=O)N(C)CC(=O)N5CCN(C)CC5)CC4)sc3n2)cc1 :: 101
4) CCN(CC)CCN(CC)C(=O)C1CCN(c2nn3cc(-c4ccc(Cl)cc4)nc3s2)CC1 :: 21
5) CC1CCN(c2ccc(-c3cn4nc(N5CCC(C(=O)N6CCN(C)CC6)CC5)sc4n3)cc2)CC1 :: 68

For every listed record, write down its viability at 96 h, 5 µM.
1. Cc1c(-c2ccc(N3CCCC3)cc2)nc2sc(N3CCC(C(=O)N4CCN(C)CC4)CC3)nn12
2. Cc1c(-c2ccc(N3CCCC(C)C3)cc2)nc2sc(N3CCC(C(=O)N4CCN(C)CC4)CC3)nn12 (centres unmarked)
3. CN1CCN(C(=O)C2CCN(c3nn4cc(-c5ccc(N6CCOCC6)cc5)nc4s3)CC2)CC1

Completion:
1. 119
2. 94
3. 100

Give one value of viability at 96 h, 5 µM per listed compound.
1. CN(C)CCN1CCN(C(=O)C2CCN(c3nn4cc(-c5ccc(Cl)cc5)nc4s3)CC2)CC1
2. CC(C)c1ccc(-c2cn3nc(N4CCC(C(=O)N5CCCCC5CN5CCCC5)CC4)sc3n2)cc1 (centres unmarked)

Completion:
6
14

For each of the items listed, what is its viability at 96 h, 5 µM?
1. Cc1c(-c2ccc(N3CCC(C)CC3)cc2)nc2sc(N3CCC(C(=O)N4CCN(C)CC4)CC3)nn12
2. O=C(C1CCN(c2nn3cc(-c4ccc(Cl)cc4)nc3s2)CC1)N1CCCC(CN2CCOCC2)C1 (centres unmarked)
3. CN(C)CCN(Cc1ccco1)C(=O)C1CCN(c2nn3cc(-c4ccc(Cl)cc4)nc3s2)CC1

Completion:
1. 101
2. 90
3. 49

Form field viability at 96 h, 5 µM, entry Cc1c(-c2ccc(N3CCOCC3)cc2)nc2sc(N3CCC(C(=O)N4CCN(C)CC4)CC3)nn12 : 94

###

# Protocol summary: Viability of FS non malignant fibroblastic cells, XTT test
# Format: cell-based
# Condition context: FS cells (non-malignant fibroblastic cell line), Control DMSO = 100%, second FS column, read-out: percentage of viable cells, FS
Labelling field: enter 1 (yes) if recorded viability at 96 h, 5 µM is less than 90%. Enter 0 (no) if it equals or exceeds that cut-off.

Some solved entries appear below for comparison.
1. O=C(C1CCN(c2nn3cc(-c4ccc(Cl)cc4)nc3s2)CC1)N1CCCCC1CN1CCCC1 (stereo not shown) :: 1 (yes)
2. CC(C)c1ccc(-c2cn3nc(N4CCC(C(=O)N5CCCCC5CCN5CCCCC5)CC4)sc3n2)cc1 (stereo not shown) :: 1 (yes)

Here's the next entry for you.
Prompt: Quick check: does CC(C)c1ccc(-c2cn3nc(N4CCC(C(=O)N5CCN(CC(=O)N6CCN(C)CC6)CC5)CC4)sc3n2)cc1 have viability at 96 h, 5 µM under 90%?
Completion: 0 (no)

###

# Protocol summary: Viability of FS non malignant fibroblastic cells, XTT test
# Type: cell-based
# Condition context: FS cells (non-malignant fibroblastic cell line), Control DMSO = 100%, second FS column, read-out: percentage of viable cells, FS
Provide the recorded viability at 96 h, 5 µM for the entries that follow.
Answers are plain numbers, in %.

1) O=C(C1CCN(c2nn3cc(-c4ccc(Cl)cc4)nc3s2)CC1)N1CCN(c2ccccn2)CC1 [Compound Z522-0200] :: 103
2) Cc1c(-c2ccc(N3CCN(C)CC3)cc2)nc2sc(N3CCC(C(=O)N4CCN(C)CC4)CC3)nn12 [Compound Z522-0180] :: 101
3) CN(CCc1ccccn1)C(=O)C1CCN(c2nn3cc(-c4ccc(Cl)cc4)nc3s2)CC1 [Compound Z522-0203] :: 94

Okay, now this compound:
Form field viability at 96 h, 5 µM, entry CC(C)c1ccc(-c2cn3nc(N4CCC(C(=O)N5CCCN(c6ncccn6)CC5)CC4)sc3n2)cc1 [Compound Z522-0242] : 123

###

# Protocol summary: Viability of FS non malignant fibroblastic cells, XTT test
# Assay type: cell-based
# Condition context: FS cells (non-malignant fibroblastic cell line), Control DMSO = 100%, first FS column, read-out: percentage of viable cells, FS
Assay readout: viability at 96 h, 5 µM (%)
Answers are plain numbers, in %.

Some compounds with known viability at 96 h, 5 µM results, for comparison:
1) O=C(C1CCN(c2nn3cc(-c4ccc(Cl)cc4)nc3s2)CC1)N1CCCN(c2ncccn2)CC1 [Compound Z522-0219] :: 89
2) Cc1c(-c2ccc(N3CCCCCCC3)cc2)nc2sc(N3CCC(C(=O)N4CCN(C)CC4)CC3)nn12 [Compound Z522-0191] :: 103
3) CC1CCN(c2ccc(-c3cn4nc(N5CCC(C(=O)N6CCN(C)CC6)CC5)sc4n3)cc2)CC1 [Compound Z522-0170] :: 90
4) Cc1c(-c2ccc(-n3cccn3)cc2)nc2sc(N3CCC(C(=O)N4CCN(C)CC4)CC3)nn12 [Compound Z522-0187] :: 92
5) CC1CCCN(c2ccc(-c3cn4nc(N5CCC(C(=O)N6CCN(C)CC6)CC5)sc4n3)cc2)C1 (stereo not shown) [Compound Z522-0166] :: 101

Please look at the items below and tell me viability at 96 h, 5 µM for each one, in order.
1. CC(C)c1ccc(-c2cn3nc(N4CCC(C(=O)N5CCCC(CN6CCOCC6)C5)CC4)sc3n2)cc1 (stereo not shown) [Compound Z522-0237]
2. CN(C)CCN1CCN(C(=O)C2CCN(c3nn4cc(-c5ccc(Cl)cc5)nc4s3)CC2)CC1 [Compound Z522-0206]
3. Cc1c(-c2ccc(N3CCC(C)CC3)cc2)nc2sc(N3CCC(C(=O)N4CCN(C)CC4)CC3)nn12 [Compound Z522-0190]
4. CC(C)c1ccc(-c2cn3nc(N4CCC(C(=O)N5CCCCC5CCN5CCOCC5)CC4)sc3n2)cc1 (stereo not shown) [Compound Z522-0234]
5. O=C(C1CCN(c2nn3cc(-c4ccc(Cl)cc4)nc3s2)CC1)N1CCN(c2ccccn2)CC1 [Compound Z522-0200]

Completion:
82
2
86
62
95

###

# Protocol summary: Viability of FS non malignant fibroblastic cells, XTT test
# Type: cell-based
# Condition context: FS cells (non-malignant fibroblastic cell line), Control DMSO = 100%, second FS column, read-out: percentage of viable cells, FS
Kindly state viability at 96 h, 5 µM for each of the entries shown.
One number for each entry, in %.

Guide cases for viability at 96 h, 5 µM, answers given:
1) CC(C)N1CCN(c2ccc(-c3cn4nc(N5CCC(C(=O)N6CCN(C)CC6)CC5)sc4n3)cc2)CC1 :: 113
2) CC(C)c1ccc(-c2cn3nc(N4CCC(C(=O)N(C)CCc5ccccn5)CC4)sc3n2)cc1 :: 99

For each entry beneath this line, provide reported viability at 96 h, 5 µM.
1. O=C(C1CCN(c2nn3cc(-c4ccc(Cl)cc4)nc3s2)CC1)N1CCN(c2ncccn2)CC1
2. CN1CCC(N2CCN(C(=O)C3CCN(c4nn5cc(-c6ccc(Cl)cc6)nc5s4)CC3)CC2)CC1
3. CC(C)c1ccc(-c2cn3nc(N4CCC(C(=O)N5CCCN(C)CC5)CC4)sc3n2)cc1
4. CC(C)c1ccc(-c2cn3nc(N4CCC(C(=O)N(C)CC(=O)NCCN(C)C)CC4)sc3n2)cc1
5. CCN(CC)CCN(CC)C(=O)C1CCN(c2nn3cc(-c4ccc(C(C)C)cc4)nc3s2)CC1

Completion:
[93, 16, 67, 96, 56]

###

# System: colon cancer cell line HCT 116
# Protocol summary: Growth profile / viability of HCT116 colon cancer cells, XTT test
# Type: cell-based
# Condition context: Homo sapiens, HCT-116, 96 h, Control DMSO = 100%, first HCT116 column, read-out: percentage of viable cells, HCT116
Lab note: cut-off is 80%. Strictly less in viability at 5 µM is y. Exactly 80% or more is n.

Prompt: Answer whether the compound CN(C)CCNC(=O)CN(C)C(=O)C1CCN(c2nn3cc(-c4ccc(Cl)cc4)nc3s2)CC1 has viability at 5 µM strictly less than 80%
Completion: y

Prompt: Strictly below 80% in viability at 5 µM? CC1CCN(c2ccc(-c3cn4nc(N5CCC(C(=O)N6CCN(C)CC6)CC5)sc4n3)cc2)CC1
Completion: y

Prompt: For this compound, is viability at 5 µM lower than 80%? Cc1c(-c2ccc(N(C)CCO)cc2)nc2sc(N3CCC(C(=O)N4CCN(C)CC4)CC3)nn12
Completion: n

Prompt: Please state whether viability at 5 µM is below 80% for O=C(C1CCN(c2nn3cc(-c4ccc(Cl)cc4)nc3s2)CC1)N1CCCN(c2ncccn2)CC1
Completion: y

Prompt: Please let me know if CN(CCc1ccccn1)C(=O)C1CCN(c2nn3cc(-c4ccc(Cl)cc4)nc3s2)CC1 shows viability at 5 µM below 80%.
Completion: y
